Tested on: L1210 leukemia ip in BDF1 mice, survival T/C
ASSAY PROCEDURE: NCI In Vivo Anticancer Drug Screen. Data for tumor model L1210 Leukemia (intraperitoneal) in B6D2F1 (BDF1) mice
MEASUREMENT CONTEXT: endpoint: mean survival time; dose: 100.0 mg/kg/injection; schedule: Q04DX003 (ip); vehicle: carboxymethylcellulose (CMC); higher = longer survival
Inconclusive results and toxic doses are left out.
READOUT NAME: T/C

compound=CC[N+](CC)(CC)CC(=O)NCc1ccco1 readout_name=T/C test_result="102 % of control"
compound=Cc1ccc(/C=C/c2ccccn2)cc1 readout_name=T/C test_result="110 % of control"
compound=O=[N+]([O-])c1ccc(C=Nc2ccc(Cc3ccncc3)cc2)cc1 readout_name=T/C test_result="101 % of control"

According to the records, this compound `COc1ccc2c(c1)CC/C(=C\c1ccccn1)C2=O` displays T/C of 98 % of control

T/C for O=C(O)C1C2C=CC(C2)C1(C(=O)O)c1ccccc1 (stereo unspecified) is 98 % of control

Measured T/C, `CCCCCCC(=O)N(CCCC)CCCC` : 103 % of control

###

Test system: L1210 leukemia ip in BDF1 mice, survival T/C
ASSAY PROCEDURE: NCI In Vivo Anticancer Drug Screen. Data for tumor model L1210 Leukemia (intraperitoneal) in B6D2F1 (BDF1) mice
MEASUREMENT CONTEXT: endpoint: mean survival time; dose: 100.0 mg/kg/injection; schedule: Q04DX002 (ip); vehicle: Klucel (hydroxypropylcellulose) (HPC); higher = longer survival
Toxic doses and inconclusive results are not listed.
READOUT NAME: T/C

Known results for molecules:
molecule=Cc1cccc(NC(=O)COc2ccc(C)cc2C)c1 readout_name=T/C test_result="103 % of control"
molecule=CC(C)Oc1c(NCCO)c2cc(Cl)ccc2oc1=O readout_name=T/C test_result="103 % of control"
molecule=Cc1cccc(SC(=O)Nc2ccc([N+](=O)[O-])cc2Cl)c1 readout_name=T/C test_result="100 % of control"

Lab note: measured T/C of CCCCCCCCC1OC1CCCCCCCC(=O)O (stereo unspecified) was 101 % of control

`C(=C/c1ccccn1)/c1ccccc1` has a reported T/C of 100 % of control

// `c1cc[c]([Pb]([c]2ccccc2)([c]2ccccc2)[c]2ccccc2)cc1` : T/C value = 103 % of control

###

Listing: T/C of selected compounds
System: L1210 leukemia ip in BDF1 mice, survival T/C
ASSAY PROCEDURE: NCI In Vivo Anticancer Drug Screen. Data for tumor model L1210 Leukemia (intraperitoneal) in B6D2F1 (BDF1) mice
MEASUREMENT CONTEXT: endpoint: mean survival time; dose: 50.0 mg/kg/injection; schedule: Q01DX009 (ip); vehicle: Klucel (hydroxypropylcellulose) (HPC); higher = longer survival
Procedure: The antitumor activity of compounds was measured in mice bearing transplantable tumors. Survival or tumor size were measured and the results are expressed as the measurement made in the treated group (T) divided by the measurement made in the vehicle treated control group (C). The tumor model used in this assay is L1210 Leukemia (intraperitoneal) in B6D2F1 (BDF1) mice
Inconclusive results and toxic doses are left out.

Some compounds with recorded T/C:
compound="CCOC(=O)C1CC=CCC1C(=O)OCC (stereo not given)" readout_name=T/C test_result="105 % of control"
compound=C/C(=N\[N+](C)(C)C)c1ccc2ccccc2c1 readout_name=T/C test_result="100 % of control"
compound=COC(=O)c1ccc(C)c(-n2c(-c3ccccc3)nnc2-c2ccccc2)c1 readout_name=T/C test_result="102 % of control"
compound=CC1=NCCc2cc3[nH]c4ccccc4c3cc21 readout_name=T/C test_result="96 % of control"
compound=CCOC(=O)c1cnc2c(ccc3cc(OC)ccc32)c1NCCCN(CC)CC readout_name=T/C test_result="105 % of control"

Query Clc1cnc(C(Cl)(Cl)Cl)c(Cl)n1 (tested in a mixture with another compound) on L1210 leukemia ip in BDF1 mice, survival T/C; T/C returned: 100 % of control

T/C for L1210 leukemia ip in BDF1 mice, survival T/C with input `COc1cccc(O)c1/C=C/[N+](=O)[O-]` equals 104 % of control

Tested system L1210 leukemia ip in BDF1 mice, survival T/C; T/C recorded for `c1ccc(-c2ccc([Si](c3ccccc3)(c3ccc(-c4ccccc4)cc3)c3ccc(-c4ccccc4)cc3)cc2)cc1` was 91 % of control

# T/C measured on L1210 leukemia ip in BDF1 mice, survival T/C for item `Cc1ccc2c(Br)cc(Br)c(O)c2n1` = 96 % of control

Given the compound `NC(=O)c1ccccc1OC(=O)Nc1ccccc1` and test system L1210 leukemia ip in BDF1 mice, survival T/C, the measured T/C is 103 % of control
